meta.source: the supplement of paper PMC7125110

B1: glmS ribozyme (parent)
chain: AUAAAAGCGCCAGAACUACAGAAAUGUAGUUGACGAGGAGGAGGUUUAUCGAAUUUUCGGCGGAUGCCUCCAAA

Variants of: B1
assay_name: self-cleavage kobs at 160 uM GlcN6P; higher = faster cleavage; RNA array
condition_details: with glucosamine-6-phosphate
This sample holds only a part of the variants without activity.
# Lookup of reported self-cleavage kobs at 160 uM GlcN6P keyed by entry

Field: example entries. Status: answers known.
* AUAAAAGCGGCAGAACUACAGAAAUGUAGUUGACGAGGAGGAGGCUUAACGAAGUUUCGGCGGAUGCCUGCAAA | < 1e-05 s⁻¹
* AUAAAAGCGCCAGAAGUACAGAAAUGUAUUUGACGAGGAGGAGGUUUAUCGAAAUUUCGGCGGAUGCCUCCAAA | 0.000446 s⁻¹
* AUAAAAGUGCCAGAACUACAGAAAUGUAGUUAACGAGGAGGAGGUUUAUCGAAUUUUCGGCGGAUGCCUCCAAA | < 1e-05 s⁻¹
* AUAAAAGCGCCAGAACUACAGAAAUGUAGUUGACGAGGACGAGGUUUAUCGAAUUUUCGGCGGAUGCCUCUAAA | 0.000335 s⁻¹

Qu. What does the record list as self-cleavage kobs at 160 uM GlcN6P for `AUAAAAGCGCCAGAACUACAGAAAUGUAGUUGACGAGGAGGAGGUUUAUCGACCUUUCGGCGGAUGCCUCCAAA` ?
Ans. 9.33e-05 s⁻¹

Qu. What does the record list as self-cleavage kobs at 160 uM GlcN6P for `AUAAAAGCGCCAGAACUACAGAAAUGUAGUUGACGAGGAGGGGGUUUAUCGAAUUUUCGGCGGAUGCUUCCAAA` ?
Ans. 0.000735 s⁻¹

Qu. What does the record list as self-cleavage kobs at 160 uM GlcN6P for `AUAAAAGCGCUAGAACUACAGAAAUGUAGUUGACGAGGAGGAGGUUUAUCUAGUUUUCGGCGGAUGCCUCCAAA` ?
Ans. < 1e-05 s⁻¹
